Reported Ki values for the following compounds.
biological target: UniProt:P00734
The response must be a number in nM with no trailing unit.

compound	meas_value
COc1cc(Cl)cc(C(=O)Nc2ccc(Cl)cn2)c1NC(=O)c1scc(CN(C)C2=NC(=O)CO2)c1Cl	90

Bench note, UniProt:P00734: entry COc1cc(Cl)cc(C(=O)Nc2ccc(Cl)cn2)c1NC(=O)c1scc(Cn2ccnc2NC(C)C)c1Cl , its Ki = 1200

Bench note, UniProt:P00734: entry COc1cc(Cl)cc(C(=O)Nc2ccc(Cl)cn2)c1NC(=O)c1scc(CN(C)C(=O)NCCO)c1Cl , its Ki = 360

Bench note, UniProt:P00734: entry CCN(CC)Cc1csc(C(=O)Nc2c(OC)cc(Cl)cc2C(=O)Nc2ccc(Cl)cn2)c1Cl , its Ki = 1500

* * *

target: Coagulation factor X (Homo sapiens)
Sequence (P00742 41-179 limits assumed): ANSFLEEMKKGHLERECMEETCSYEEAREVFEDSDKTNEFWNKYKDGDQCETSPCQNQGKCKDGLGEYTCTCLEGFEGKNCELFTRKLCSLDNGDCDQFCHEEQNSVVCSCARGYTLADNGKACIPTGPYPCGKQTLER
Sequence (P00742 235-488 limits assumed): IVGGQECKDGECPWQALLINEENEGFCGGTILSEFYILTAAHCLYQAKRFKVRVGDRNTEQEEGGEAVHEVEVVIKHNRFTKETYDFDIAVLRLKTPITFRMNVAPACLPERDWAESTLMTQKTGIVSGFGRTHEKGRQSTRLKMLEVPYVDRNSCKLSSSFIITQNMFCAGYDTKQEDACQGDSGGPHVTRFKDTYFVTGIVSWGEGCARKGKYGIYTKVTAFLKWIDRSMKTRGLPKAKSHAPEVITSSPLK
param class (str): category from Ki; see ranges bin 0 (below 0.02 nM), bin 1 (0.02 nM to below 0.2 nM), bin 2 (0.2 nM or more)

molecule	tested_target	assigned_label
COc1cc(Cl)cc(C(=O)Nc2ccc(Cl)cn2)c1NC(=O)c1scc(CN(C)CC(O)CO)c1Cl (stereo not drawn)	Coagulation factor X (Homo sapiens)	bin 2

Each molecule maps to one class by Ki. Which class for COc1cc(Cl)cc(C(=O)Nc2ccc(Cl)cn2)c1NC(=O)c1scc(CN(C)C2=NCCS2)c1Cl ?
bin 1

Each molecule maps to one class by Ki. Which class for COc1cc(Cl)cc(C(=O)Nc2ccc(Cl)cn2)c1NC(=O)c1scc(CN(C)C(=N)N)c1Cl ?
bin 0

Each molecule maps to one class by Ki. Which class for CN1CCN(Cc2csc(C(=O)Nc3ccc(Cl)cc3C(=O)Nc3ccc(Cl)cn3)c2Cl)CC1 ?
bin 2

Each molecule maps to one class by Ki. Which class for COc1cc(Cl)cc(C(=O)Nc2ccc(Cl)cn2)c1NC(=O)c1scc(CN(C)C(=O)NCCC(=O)O)c1Cl ?
bin 1

Each molecule maps to one class by Ki. Which class for COc1cc(Cl)cc(C(=O)Nc2ccc(Cl)cn2)c1NC(=O)c1scc(CN(C)c2ncco2)c1Cl ?
bin 1

Each molecule maps to one class by Ki. Which class for CCN(Cc1csc(C(=O)Nc2c(OC)cc(Cl)cc2C(=O)Nc2ccc(Cl)cn2)c1Cl)C1=NC(C)CO1 (stereo not drawn) ?
bin 1

* * *

experiment: Volume of distribution at steady state in Beagle dog at 1 mg/kg, iv; type: ADME, organism-based, Canis lupus familiaris; set-up: dose 1 mg/kg, route intravenous; settings: in vivo, read-out: Vss
Reported Vd values for the following compounds.
The response must be a number in L/kg with no trailing unit.

compound	Vd, L/kg
COc1cc(Cl)cc(C(=O)Nc2ccc(Cl)cn2)c1NC(=O)c1scc(CN(C)C2=NCCO2)c1Cl	1.6
CNc1nccn1Cc1csc(C(=O)Nc2c(OC)cc(Cl)cc2C(=O)Nc2ccc(Cl)cn2)c1Cl	1
CNCc1csc(C(=O)Nc2c(OC)cc(Cl)cc2C(=O)Nc2ccc(Cl)cn2)c1Cl	1.4

So, COc1cc(Cl)cc(C(=O)Nc2ccc(Cl)cn2)c1NC(=O)c1scc(CN(C)CCO)c1Cl ? Its Vd was 4.4

* * *

test: Inhibition of human chymotrypsin
measured_endpoint: Ki

As a guide, the following entries are already answered.
compound	Ki
CNc1nccn1Cc1csc(C(=O)Nc2c(OC)cc(Cl)cc2C(=O)Nc2ccc(Cl)cn2)c1Cl	> 5 µM
CNCc1csc(C(=O)Nc2c(OC)cc(Cl)cc2C(=O)Nc2ccc(Cl)cn2)c1Cl	> 10 µM

Lab note: next compound to report on.
So, COc1cc(Cl)cc(C(=O)Nc2ccc(Cl)cn2)c1NC(=O)c1scc(CN(C)C2=NCCO2)c1Cl ? Its Ki was > 10 µM
